Test: NCI Yeast Anticancer Drug Screen. Data for the rad50 strain (AID 155);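 further: 0% = growth of vehicle-only cultures of the same strain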
Conditions: S. cerevisiae rad50 strain growth inhibition; at 50.0 µM (retest, dose inferred, filed as 5.0); active compounds read high
Method: Growth inhibition of yeast strains with defined genetic alterations is measured as a screen for potential anti-cancer activity. Selected strains with alterations in DNA damage repair or cell cycle control were exposed to compounds and growth inhibition was measured relative to vehicle treated controls. The strain used in this assay is rad50
The panel holds about 79,000 compounds, 15% with a hit somewhere; the sample as a whole holds those more often.
growth inhibition values, listed per item
The figure you give is taken to be in %; do not add the unit.

Consider the reported growth inhibition for these compounds:
{"columns": ["compound", "growth inhibition [%]"],
 "data": [
  ["CN(C)CCOC1(Cc2ccc(Cl)cc2Cl)CCC(C(C)(C)C)CC1 (centres undefined)", 100],
  ["O=C(C[n+]1ccc2ccccc2c1)c1ccc2ccccc2c1", 100],
  ["CCOc1c(N=Nc2ccccc2OC)c(C)nn1C(=S)S", 36]
]}

Prompt line: Need growth inhibition, item CN1CCN(C(=O)/C=C/C(=O)c2ccccc2)CC1
Response line: -3

Prompt line: Please look up its growth inhibition: Cc1nc(Nc2ccccc2[N+](=O)[O-])sc1C(=O)CC(=O)C(=O)Nc1c(C(C)C)cccc1C(C)C
Response line: 1

Prompt line: Need growth inhibition, item O=C(O)c1cc2ccccc2c2c1C(=O)c1ccccc1-2
Response line: 94

Prompt line: Query: growth inhibition; subject: CC(C)(CCCCC(C)(C)[N+](C)(C)C)[N+](C)(C)C
Response line: 54

Prompt line: Find the recorded growth inhibition belonging to COc1ccc(NC(=O)CC2SC(=Nc3ccccc3C)NC2=O)c([N+](=O)[O-])c1 (centres undefined) and report it.
Response line: 69

Prompt line: Endpoint output: growth inhibition of COC(C(O)CO)C(O)C(O)C(=O)NNc1ccccc1 (centres undefined) . Value?
Response line: 71

Prompt line: Requested read-out: growth inhibition. Entry: N#CC(C#N)=NNc1ccc(S(=O)(=O)O)cc1
Response line: 99

----------
experiment: NCI Yeast Anticancer Drug Screen. Data for the rad50 strain (AID 155);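 further: 0% = growth of vehicle-only cultures of the same strain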; details: S. cerevisiae rad50 strain growth inhibition; at 1.2 µM; active compounds read high
Compounds without any hit were thinned out: in the full panel of roughly 79,000, 15% have a hit.
Listed here: items and their measured growth inhibition.
Numeric answer only, unit % assumed.

{"columns": ["compound", "measure_name", "numeric_readout"],
 "data": [
  ["COc1cccc2c1C(=O)c1c(O)c3c(c(O)c1C2=O)CC(O)(C(O)CO)CC3OC1CC(N2CCOCC2)C(O)C(C)O1 (configuration not stated)", "growth inhibition", 96],
  ["NC1=NNC2(C(N)=N1)c1ccccc1-c1ccccc12", "growth inhibition", -7],
  ["CN(C)C=NC1CCC(C(C)(C)C)CC1 (configuration not stated)", "growth inhibition", -3],
  ["COc1cc(C2c3cc4c(cc3OC(OC(C)=O)C2C)OCO4)cc(OC)c1OC (configuration not stated)", "growth inhibition", -1]
]}

Prompt line: Query (compound): CNC(=O)OCc1c(COC(=O)NC)c2n(c1C)-c1ccc(OC)cc1CCC2 ; field requested: growth inhibition
Response line: -35

Prompt line: growth inhibition lookup needed for Cc1c(C(C)C)cc(OCCO)cc1C(C)C , thanks.
Response line: -3

Prompt line: Please look up its growth inhibition: COc1ccc(/C=C/c2sc3ccccc3[n+]2CCCCI)cc1OC
Response line: -2

Prompt line: Given the compound Cc1cccc[n+]1C1CCc2c(ccc3ccccc23)C1=O (configuration not stated) , what is its reported growth inhibition?
Response line: 5

Prompt line: Item COc1cc(/C=N/Nc2nnc3c4ccccc4c4ncccc4c3n2)cc(OC)c1OC has what recorded growth inhibition?
Response line: 18

Prompt line: Look up growth inhibition: O=C(/C=C/c1cc(Cl)cc(Cl)c1O)c1cccc(O)c1
Response line: 1

Prompt line: So what's the measured growth inhibition for this one? O=C(O)c1ccc(N2C(=O)C=CC2=O)cc1
Response line: 3

Prompt line: Query: growth inhibition; subject: c1ccc2[nH]c(-c3cscn3)nc2c1
Response line: -2

Prompt line: What value of measured growth inhibition is listed for CC1=CC(=C(c2ccc(N)cc2)c2ccc(N)cc2)C=CC1=N ?
Response line: -2

Prompt line: Could you share which growth inhibition value was measured for CC1CC[C@]2(C(=O)O)CCC3(C)C(=CC(=O)C4[C@@]5(C)CCC(=O)C(C)(C)C5CC[C@]43C)[C@@H]2[C@H]1C (some centres not stated) ?
Response line: 20

Prompt line: Reported growth inhibition for CCC(C)NC1=NCC(C)S1 (configuration not stated) : what is it?
Response line: -29

Prompt line: I have this compound here, Cc1cc(C(C)(C)CC(C)(C)C)ccc1O , and I need its recorded growth inhibition.
Response line: 12

Prompt line: // growth inhibition lookup, key: O=c1ssc(=Nc2ccccc2)n1-c1ccccc1
Response line: 9

Prompt line: State the recorded growth inhibition for this entry: COc1cc(O)c(O)c(C(C)(C)C)c1
Response line: 0

Prompt line: Given the compound CCc1c[n+]([O-])c(C)cc1[N+](=O)[O-] , what is its reported growth inhibition?
Response line: 1

Prompt line: What growth inhibition value was documented for this compound, COC1=C(N)C(=O)c2nc(-c3nc(C(=O)O)c(C)c(-c4ccc(OC)c(OC)c4O)c3N)ccc2C1=O ?
Response line: 96

Prompt line: Given COC1CCC(O)C(/C=C/[N+](=O)[O-])C1 (configuration not stated) , state its recorded growth inhibition.
Response line: 29

Prompt line: Item under review: CC1(C)CC(=O)C(/C=N/c2nc(-c3ccccc3)cs2)=C(O)C1 . Reported growth inhibition?
Response line: -5

Prompt line: # input compound: O=[N+]([O-])c1cc(F)c(F)cc1Sc1cc(F)c(F)cc1[N+](=O)[O-] ; wanted: its growth inhibition
Response line: 6

Prompt line: Entry CNC(=O)OCc1c(COC(=O)NC)c(-c2ccc(Cl)c(Cl)c2)n2c1SCC2 has what growth inhibition?
Response line: -1
